All figures here come from ChEMBL document CHEMBL4373715.

Tested on: HCC70
assay name: Antiproliferative activity against human HCC70 cells measured after 72 hrs by Ez-cytox assay
Format: functional, cell-based
condition label: HCC70, 72 h
experimental readout: pIC50
One number for each entry, as −log10 of the molar value.

// pIC50 lookup, key: `CC[C@@]1(O)C(=O)OCc2c1cc1n(c2=O)Cc2cc3ccccc3nc2-1` 7.36

----------
test target: UniProt P11387
Sequence (P11387 whole entry): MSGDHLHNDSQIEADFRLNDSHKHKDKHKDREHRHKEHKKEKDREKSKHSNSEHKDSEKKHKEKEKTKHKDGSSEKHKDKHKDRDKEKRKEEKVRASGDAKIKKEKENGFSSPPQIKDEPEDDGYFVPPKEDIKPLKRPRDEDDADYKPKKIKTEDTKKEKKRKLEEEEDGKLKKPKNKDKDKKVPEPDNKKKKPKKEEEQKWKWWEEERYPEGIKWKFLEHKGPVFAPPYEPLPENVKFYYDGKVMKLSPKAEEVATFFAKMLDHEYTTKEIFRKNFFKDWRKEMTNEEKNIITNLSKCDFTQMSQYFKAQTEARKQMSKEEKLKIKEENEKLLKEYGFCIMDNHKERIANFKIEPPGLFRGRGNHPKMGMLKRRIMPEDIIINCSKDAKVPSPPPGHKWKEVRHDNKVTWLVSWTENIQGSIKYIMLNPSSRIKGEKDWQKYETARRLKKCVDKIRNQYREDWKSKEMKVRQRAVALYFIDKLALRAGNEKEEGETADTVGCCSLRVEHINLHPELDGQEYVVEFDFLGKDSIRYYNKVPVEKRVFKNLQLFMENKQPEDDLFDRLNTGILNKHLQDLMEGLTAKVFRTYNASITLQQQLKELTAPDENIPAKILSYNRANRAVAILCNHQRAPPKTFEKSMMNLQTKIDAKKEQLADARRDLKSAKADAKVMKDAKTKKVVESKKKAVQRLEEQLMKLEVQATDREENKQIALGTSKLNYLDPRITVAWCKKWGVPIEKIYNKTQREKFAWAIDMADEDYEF
assay name: Inhibition of recombinant human topoisomerase 1-mediated relaxation of supercoiled pBR322 DNA at 100 uM measured after 30 mins by ethidium bromide staining based agarose gel electrophoresis relative to control
experimental readout: inhibition (%)
Answers are plain numbers, in %.

Oc1cccc(-c2cc(-c3ccccc3)nc3c2Cc2cc(O)ccc2-3)c1	20
Oc1ccccc1-c1cc(-c2ccccc2Cl)c2c(n1)-c1c(O)cccc1C2	23.9
Oc1ccccc1-c1cc(-c2ccc(Cl)cc2)c2c(n1)-c1c(O)cccc1C2	0
Oc1cccc(-c2cc(-c3ccc(F)cc3)nc3c2Cc2c(O)cccc2-3)c1	26.2

Shifting focus to the compound that follows.
Entry under review: `Oc1cccc(-c2cc(-c3ccccc3)c3c(n2)-c2cc(O)ccc2C3)c1` . Reported inhibition? 0
